# Tested on: SEM cells
# assay-protocol: cell viability relative to DMSO control; higher = less cytotoxic
# condition-set: RPMI 5 mM glucose + 10% FBS; 48 h; 0.0211 µM
experimental-endpoint: cell viability (%)
# output: bare number, implied unit %

// known answers, use as guide
structure-notation: CC[C@@H]1[C@@H](C)O[C@@](O)([C@@H](C)[C@H](O)[C@H](C)[C@H]2OC(=O)/C=C/C=C/[C@H](C)[C@@H]([C@@H](C)[C@@H](O)[C@H](C)[C@@]3(O)C[C@@H](O[C@H]4C[C@H](O)[C@H](O)[C@H](C)O4)[C@H](CC)[C@@H](C)O3)OC(=O)/C=C/C=C/[C@@H]2C)C[C@H]1O[C@H]1C[C@H](O)[C@H](O)[C@H](C)O1
study-system: SEM cells
cell viability (%): 101
//
structure-notation: COc1cc([C@@H](CC(=O)O)c2ccc(C)c(CN3C[C@@H](C)Oc4ccccc4[S+]3(=O)[O-])c2)cc2nnn(C)c12
study-system: SEM cells
cell viability (%): 134

Could you now consider this next compound?
Enquiry: Name the recorded cell viability of the compound listed here: O=C1\C=C/C=C2/[C@H]3CNC[C@H](C3)CN12
Return: 113
